assay: in vitro
Would you kindly list CC50 for each of these compounds?

COc1ccc(C2CC(=O)c3c(OC)cc(OC)cc3O2)cc1 (racemic) [Compound 2, (±)-4′,5,7-trimethoxy flavanone]	200 µg/mL
CNC(C)C1CCC(N)C(OC2C(N)CC(N)C(OC3OCC(C)(O)C(NC)C3O)C2O)O1 (stereo not drawn) [Gentamicin, gentamicin, reference compound]	> 200 µg/mL

Item COc1ccc(-c2oc3cc(O)cc(O)c3c(=O)c2O)cc1 [Compound 4, 3,5,7-trihydroxy-4′-methoxyflavone] has what recorded CC50?
> 200 µg/mL
